assay summary: Toxicity test of oral gavage administration in Beagle dogs, 28 consecutive days
Format: in vivo
run parameters: female, beagle, dog, in vivo, po; dogs ♀; NOAEL 3 mg/kg/time BID, 28-day test
property name: AUC (ng·h/mL)
Numbers only here, please. The scale is ng·h/mL.

Q. Name the reported AUC value associated with the molecule "NC(=O)c1cnc(Nc2ccc3c(c2)OC[C@H]2CN(S(=O)(=O)C4CC4)CCN32)nc1NC1CC1"
A. 3930

* * *

property name: IC50 (nM)
Numbers only here, please. The scale is nM.

Q. Find the measured IC50: item "NC(=O)c1cnc(Nc2ccc3c(c2)OC[C@H]2CN(S(=O)(=O)C4CC4)CCN32)nc1NC1CC1" , target or system UniProt O60674.
Sequence (O60674 whole entry, species assumed): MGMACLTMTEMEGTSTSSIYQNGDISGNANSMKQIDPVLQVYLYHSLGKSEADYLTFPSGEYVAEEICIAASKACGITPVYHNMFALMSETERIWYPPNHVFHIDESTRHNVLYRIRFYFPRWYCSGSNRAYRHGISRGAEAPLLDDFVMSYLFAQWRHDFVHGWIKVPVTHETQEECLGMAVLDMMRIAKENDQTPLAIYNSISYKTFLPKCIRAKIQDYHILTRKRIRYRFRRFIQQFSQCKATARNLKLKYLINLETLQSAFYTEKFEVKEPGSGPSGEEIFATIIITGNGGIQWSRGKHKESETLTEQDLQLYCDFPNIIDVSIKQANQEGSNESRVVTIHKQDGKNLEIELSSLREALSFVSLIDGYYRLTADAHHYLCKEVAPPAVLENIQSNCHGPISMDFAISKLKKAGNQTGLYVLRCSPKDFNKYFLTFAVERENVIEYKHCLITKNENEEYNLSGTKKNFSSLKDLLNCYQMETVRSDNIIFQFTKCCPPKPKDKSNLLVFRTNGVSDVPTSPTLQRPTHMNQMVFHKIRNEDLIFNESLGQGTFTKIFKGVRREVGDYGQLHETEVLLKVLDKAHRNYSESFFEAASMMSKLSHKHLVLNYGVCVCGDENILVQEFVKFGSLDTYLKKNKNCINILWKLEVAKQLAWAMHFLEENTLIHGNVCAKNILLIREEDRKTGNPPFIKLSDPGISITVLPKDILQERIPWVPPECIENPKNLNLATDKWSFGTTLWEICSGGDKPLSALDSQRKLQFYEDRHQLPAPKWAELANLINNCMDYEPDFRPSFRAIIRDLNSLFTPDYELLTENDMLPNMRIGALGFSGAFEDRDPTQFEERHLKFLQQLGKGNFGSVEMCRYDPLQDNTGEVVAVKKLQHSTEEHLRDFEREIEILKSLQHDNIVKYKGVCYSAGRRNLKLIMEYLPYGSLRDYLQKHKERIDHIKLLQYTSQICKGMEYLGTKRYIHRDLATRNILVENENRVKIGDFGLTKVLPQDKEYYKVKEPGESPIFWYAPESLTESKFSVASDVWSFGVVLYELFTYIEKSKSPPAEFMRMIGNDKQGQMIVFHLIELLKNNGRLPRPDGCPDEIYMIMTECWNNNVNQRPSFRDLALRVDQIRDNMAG
A. 3.92

* * *

property name: pIC50
By convention, pIC50 is the negative base-10 log of a molar concentration.

Q. Find the measured pIC50: item "NC(=O)c1cnc(Nc2ccc3c(c2)OC[C@H]2CN(S(=O)(=O)C4CC4)CCN32)nc1NC1CC1" , target or system SYK (Homo sapiens).
A. 8.14

* * *

assay summary: Toxicity test of single oral gavage administration in Beagle dogs
Type: in vivo
run parameters: dog, in vivo, administered twice within 24 hours
property name: MTD at 24 h (mg/kg/day)
Numbers only here, please. The scale is mg/kg/day.

Q. Name the reported MTD at 24 h value associated with the compound "NC(=O)c1cnc(Nc2ccc3c(c2)OC[C@H]2CN(S(=O)(=O)C4CC4)CCN32)nc1NC1CC1"
A. 1000

* * *

assay summary: Toxicity test of oral gavage administration in Beagle dogs, 28 consecutive days
Format: in vivo
run parameters: male, beagle, dog, in vivo, po; dogs ♂; NOAEL 3 mg/kg/time BID, 28-day test
Source text: […]
property name: AUC (ng·h/mL)
Numbers only here, please. The scale is ng·h/mL.

Q. Name the reported AUC value associated with the compound "NC(=O)c1cnc(Nc2ccc3c(c2)OC[C@H]2CN(S(=O)(=O)C4CC4)CCN32)nc1NC1CC1"
A. 3300

* * *

assay summary: Toxicity test of oral gavage administration in Beagle dogs, 28 consecutive days
Type: in vivo
run parameters: beagle, dog, in vivo, po
property name: NOAEL at 28 days (mg/kg/day)
Numbers only here, please. The scale is mg/kg/day.

Q. Name the reported NOAEL at 28 days value associated with the compound "NC(=O)c1cnc(Nc2ccc3c(c2)OC[C@H]2CN(S(=O)(=O)C4CC4)CCN32)nc1NC1CC1"
A. 6

* * *

assay summary: Rat effective dose for safety window calculation
Format: in vivo
run parameters: in vivo; rat effective dose 3 mg/kg/time BID
property name: AUC (ng·h/mL)
Numbers only here, please. The scale is ng·h/mL.

Q. Name the reported AUC value associated with the compound "NC(=O)c1cnc(Nc2ccc3c(c2)OC[C@H]2CN(S(=O)(=O)C4CC4)CCN32)nc1NC1CC1"
A. 4310

* * *

assay summary: Toxicity test of oral gavage administration in SD rats, 28 consecutive days
Type: in vivo
run parameters: male, SD, rat, in vivo, po; rats ♂; NOAEL 10 mg/kg/time BID, 28-day test
property name: AUC

Q. Name the reported AUC value associated with the compound NC(=O)c1cnc(Nc2ccc3c(c2)OC[C@H]2CN(S(=O)(=O)C4CC4)CCN32)nc1NC1CC1 [Compound (I)]
A. 33.9 µg·h/mL

* * *

assay summary: Toxicity test of oral gavage administration in SD rats, 28 consecutive days
Assay type: in vivo
run parameters: SD, rat, in vivo, po
property name: NOAEL at 28 days
Note: state the figure and append the unit.

Q. Name the reported NOAEL at 28 days value associated with the compound NC(=O)c1cnc(Nc2ccc3c(c2)OC[C@H]2CN(S(=O)(=O)C4CC4)CCN32)nc1NC1CC1 [Compound (I)]
A. 20 mg/kg/day

* * *

target system: JAK3 (Homo sapiens, UniProt P52333)
Sequence (P52333 whole entry, species assumed): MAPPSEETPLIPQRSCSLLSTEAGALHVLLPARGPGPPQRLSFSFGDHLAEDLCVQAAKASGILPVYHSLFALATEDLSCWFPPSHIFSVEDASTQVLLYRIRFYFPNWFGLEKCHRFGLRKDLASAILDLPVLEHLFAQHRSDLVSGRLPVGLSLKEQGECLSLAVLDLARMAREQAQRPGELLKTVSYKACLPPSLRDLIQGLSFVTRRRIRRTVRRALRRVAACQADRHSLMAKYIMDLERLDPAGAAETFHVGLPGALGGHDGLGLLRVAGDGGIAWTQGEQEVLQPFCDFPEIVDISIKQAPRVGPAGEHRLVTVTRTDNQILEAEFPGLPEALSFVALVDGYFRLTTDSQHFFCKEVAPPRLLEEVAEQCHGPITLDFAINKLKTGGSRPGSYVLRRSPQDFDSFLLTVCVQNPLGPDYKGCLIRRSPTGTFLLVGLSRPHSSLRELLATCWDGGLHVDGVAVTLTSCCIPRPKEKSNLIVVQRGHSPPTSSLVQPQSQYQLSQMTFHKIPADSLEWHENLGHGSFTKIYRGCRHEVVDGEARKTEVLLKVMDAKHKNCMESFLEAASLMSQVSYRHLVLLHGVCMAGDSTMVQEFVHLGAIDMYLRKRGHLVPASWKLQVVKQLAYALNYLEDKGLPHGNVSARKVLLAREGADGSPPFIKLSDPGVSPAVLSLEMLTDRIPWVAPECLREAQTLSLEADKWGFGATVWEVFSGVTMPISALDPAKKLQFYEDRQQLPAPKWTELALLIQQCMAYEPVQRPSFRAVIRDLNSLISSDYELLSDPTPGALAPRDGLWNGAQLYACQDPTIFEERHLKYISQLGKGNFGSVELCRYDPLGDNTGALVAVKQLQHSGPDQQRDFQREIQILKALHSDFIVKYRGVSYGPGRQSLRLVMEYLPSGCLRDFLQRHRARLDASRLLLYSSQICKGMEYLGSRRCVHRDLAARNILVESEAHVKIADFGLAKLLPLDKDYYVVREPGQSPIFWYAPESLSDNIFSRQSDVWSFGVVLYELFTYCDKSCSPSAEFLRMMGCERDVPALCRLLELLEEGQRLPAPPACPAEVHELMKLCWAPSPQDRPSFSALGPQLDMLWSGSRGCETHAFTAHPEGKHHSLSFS
property name: IC50 (nM)
Numbers only here, please. The scale is nM.

Q. Name the reported IC50 value associated with the molecule "NC(=O)c1cnc(Nc2ccc3c(c2)OC[C@H]2CN(S(=O)(=O)C4CC4)CCN32)nc1NC1CC1"
A. 1.43

* * *

assay summary: Toxicity test of oral gavage administration in SD rats, 28 consecutive days
Format: in vivo
run parameters: female, SD, rat, in vivo, po; rats ♀; NOAEL 10 mg/kg/time BID, 28-day test
property name: AUC (ng·h/mL)
Numbers only here, please. The scale is ng·h/mL.

Q. Name the reported AUC value associated with the compound "NC(=O)c1cnc(Nc2ccc3c(c2)OC[C@H]2CN(S(=O)(=O)C4CC4)CCN32)nc1NC1CC1"
A. 58100
